The measured values listed here are drawn from patent US11866450B2.

target: CFTR-mediated chloride transport (Homo sapiens, UniProt P13569); format: cell-based; details: enteroid cells incubated with test compound 18-24 hours; acute 10 μM forskolin and 300 nM Compound III; % of chloride transport with 3 μM Compound A, 3 μM Compound II and 300 nM acute Compound III triple combination control
Sequence (P13569 whole entry, looked up): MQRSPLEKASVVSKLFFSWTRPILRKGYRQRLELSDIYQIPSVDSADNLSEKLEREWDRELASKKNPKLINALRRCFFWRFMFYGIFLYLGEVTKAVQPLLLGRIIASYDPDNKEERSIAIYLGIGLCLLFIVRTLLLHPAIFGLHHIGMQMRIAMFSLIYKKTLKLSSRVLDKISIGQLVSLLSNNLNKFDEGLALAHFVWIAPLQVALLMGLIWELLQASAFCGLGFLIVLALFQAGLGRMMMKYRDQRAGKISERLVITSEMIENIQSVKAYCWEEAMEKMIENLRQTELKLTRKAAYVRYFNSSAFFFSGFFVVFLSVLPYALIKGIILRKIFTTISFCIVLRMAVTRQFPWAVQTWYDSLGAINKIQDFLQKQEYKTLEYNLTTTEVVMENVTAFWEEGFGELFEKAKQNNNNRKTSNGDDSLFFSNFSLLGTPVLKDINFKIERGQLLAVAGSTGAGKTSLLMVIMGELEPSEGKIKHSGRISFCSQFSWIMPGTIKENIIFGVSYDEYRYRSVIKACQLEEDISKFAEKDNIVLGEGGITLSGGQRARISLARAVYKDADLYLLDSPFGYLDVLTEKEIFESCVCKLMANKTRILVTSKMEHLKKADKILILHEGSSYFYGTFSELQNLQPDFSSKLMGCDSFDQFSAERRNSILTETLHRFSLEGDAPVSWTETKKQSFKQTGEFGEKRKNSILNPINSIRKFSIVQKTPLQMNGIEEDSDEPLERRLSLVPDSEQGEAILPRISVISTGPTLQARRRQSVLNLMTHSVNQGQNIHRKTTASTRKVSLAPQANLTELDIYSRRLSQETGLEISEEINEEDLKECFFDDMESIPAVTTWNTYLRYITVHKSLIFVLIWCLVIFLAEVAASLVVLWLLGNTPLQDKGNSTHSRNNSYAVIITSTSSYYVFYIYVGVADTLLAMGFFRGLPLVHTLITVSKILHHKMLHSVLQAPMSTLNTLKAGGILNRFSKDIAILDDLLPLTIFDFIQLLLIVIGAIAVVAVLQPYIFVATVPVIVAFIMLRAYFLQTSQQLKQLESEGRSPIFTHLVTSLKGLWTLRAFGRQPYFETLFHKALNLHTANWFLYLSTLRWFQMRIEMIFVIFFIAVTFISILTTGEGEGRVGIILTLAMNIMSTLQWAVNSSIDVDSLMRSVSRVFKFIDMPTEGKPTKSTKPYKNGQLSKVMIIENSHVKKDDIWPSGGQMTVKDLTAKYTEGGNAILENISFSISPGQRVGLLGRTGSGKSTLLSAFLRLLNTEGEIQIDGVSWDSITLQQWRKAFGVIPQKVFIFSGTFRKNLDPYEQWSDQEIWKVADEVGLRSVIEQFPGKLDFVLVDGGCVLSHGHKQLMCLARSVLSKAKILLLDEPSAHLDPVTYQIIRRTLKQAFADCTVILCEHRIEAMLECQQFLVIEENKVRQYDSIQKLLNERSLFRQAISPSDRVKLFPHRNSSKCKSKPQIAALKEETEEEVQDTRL
measurement-name: Max. Activity

See these solved cases before continuing.
Cc1c2cnn1CCCC[C@H]1CN(c3nc(-n4ccc(OCCC5(C(F)(F)F)CC5)n4)ccc3C(=O)NS2(=O)=O)C(C)(C)C1 (single isomer, unassigned) [Compound 80] | + (+ is <30%)
C[C@@H]1CC[C@H]2CN(c3nc(N4CCN(CCC(C)(C)C)C4=O)ccc3C(=O)NS(=O)(=O)c3cccc(n3)N1)C(C)(C)C2 (single isomer, unassigned) [Compound 219] | ++ (++ is 30-60%)
CC1(C)C[C@H]2CCNc3cccc(n3)S(=O)(=O)NC(=O)c3ccc(-n4ccc(OCC5(C(F)(F)F)CC5)n4)nc3N1C2 (single isomer, unassigned) [Compound 6] | +++ (+++ is >60%)
CC(C)(C)CCN1CCN(c2ccc3c(n2)N2C(CCCNc4cccc(n4)S(=O)(=O)NC3=O)CCC2(C)C)C1=O (stereo not drawn) | + (+ is <30%)
CC1(C)C[C@@H]2CCCNc3cccc(n3)S(=O)(=O)NC(=O)c3ccc(-n4ccc(OCCC(C)(C)C(F)(F)F)n4)nc3N1C2 | +++ (+++ is >60%)
Cc1c2cnn1CCCC1CN(c3nc(-n4ccc(OCC(C)(C)C(F)(F)F)n4)ccc3C(=O)NS2(=O)=O)C(C)(C)C1 (single isomer, unassigned) [Compound 286] | + (+ is <30%)
Cc1cc2nn1CCCC1CN(c3nc(-n4ccc(OCCC5(C(F)(F)F)CC5)n4)ccc3C(=O)NS2(=O)=O)C(C)(C)C1 (stereo not drawn) | ++ (++ is 30-60%)
CC(C)C(COc1ccn(-c2ccc3c(n2)N2CC(CC2(C)C)OCCNc2cccc(n2)S(=O)(=O)NC3=O)n1)C(C)C (stereo not drawn) | +++ (+++ is >60%)

Give Max. Activity for each of the items listed below.
1. Cc1cc2nn1CCC[C@H]1CN(c3nc(-n4ccc(OCCC5(C(F)(F)F)CC5)n4)ccc3C(=O)NS2(=O)=O)C(C)(C)C1 (single isomer, unassigned) [Compound 150]
2. CC1(C)CC2CN1c1nc(-n3ccc(OCCC(C4CC4)C4CC4)n3)ccc1C(=O)NS(=O)(=O)c1cccc(n1)NCCO2 (racemic)

Output:
1: + (+ is <30%); 2: +++ (+++ is >60%)

Give Max. Activity for each of the items listed below.
1. CC1(C)CC2CCCCNc3cccc(n3)S(=O)(=O)NC(=O)c3ccc(-n4cc(OCCC5(C(F)(F)F)CC5)cn4)nc3N1C2 (racemic)
2. Cc1c2cnn1CCCC[C@H]1CN(c3nc(-n4ccc(OCCC5(C(F)(F)F)CC5)n4)ccc3C(=O)NS2(=O)=O)C(C)(C)C1 (single isomer, unassigned) [Compound 81]

Output:
1. ++ (++ is 30-60%)
2. ++ (++ is 30-60%)
